Here we gather pKd data for Retinoic acid receptor RXR-gamma (Mus musculus, UniProt P28705) reported by several publications.
pKd: −log10 of the molar value.
Would you please tag the item fulfilled when its pKd is 6 or above, and not fulfilled when it is below?

Completed entries (count: 3):
COc1cc2c(cc1C(=O)c1ccc(C(=O)O)cc1)C(C)(C)CCC2(C)C | not fulfilled
C=C(c1ccc(C(=O)O)cc1)c1cc2c(cc1Br)C(C)(C)CCC2(C)C | fulfilled
C=C(c1ccc(C(=O)O)cc1)c1cc2c(cc1CCC)C(C)(C)CCC2(C)C | fulfilled

Data request: Determine whether measured pKd meets or exceeds 6 for "C=C(c1ccc(C(=O)O)cc1)c1cc2c(cc1CC)C(C)(C)CCC2(C)C"
Data returned: fulfilled

Data request: Determine whether measured pKd meets or exceeds 6 for "Cc1cc2c(cc1S(=O)(=O)c1ccc(C(=O)O)cc1)C(C)(C)CCC2(C)C"
Data returned: not fulfilled

Data request: Determine whether measured pKd meets or exceeds 6 for "Cc1cc2c(cc1Oc1ccc(C(=O)O)cc1)C(C)(C)CCC2(C)C"
Data returned: fulfilled
